Record form. Attribute: protein stability index. Fill in for each entry.
B1: RAB11B (parent)
chain: AVPTDEARAFAEKNNLSFIETSAL

Variants of: B1
Assay: protein stability index of a GFP-peptide fusion (GPS, HEK-293T) (PSI 1-6); higher = more stable;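 also: lentivirally expressed fusions sorted by FACS into six bins by GFP to DsRed ratio, PSI derived from sequencing read proportions per bin multiplied by bin number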
Conditions: c terminus: a fixed tail appended
Could you respond with only the numeric value?

Reported protein stability index of AVPTDEYRAFAEKNNLSFIETSAL [A7Y] : 2.94

Reported protein stability index of AVPTDEARAFAEKNNLSFIETSTL [A23T] : 2.77

Reported protein stability index of AVPTDEARHFAEKNNLSFIETSAL [A9H] : 2.07

Reported protein stability index of AVPTDEARAFAEKMNLSFIETSAL [N14M] : 2.25

Reported protein stability index of AVPTDEARAFAYKNNLSFIETSAL [E12Y] : 1.93

Reported protein stability index of AVPTDEARAEAEKNNLSFIETSAL [F10E] : 4.11

Reported protein stability index of QVPTDEARAFAEKNNLSFIETSAL [A1Q] : 2.63

Reported protein stability index of AVPTDEAWAFAEKNNLSFIETSAL [R8W] : 2.94

Reported protein stability index of AVPTDEARAFAEKNNLIFIETSAL [S17I] : 2.89

Reported protein stability index of AVPTDEARAFGEKNNLSFIETSAL [A11G] : 2.16

Data provenance: the supplement of paper PMC10567573
